The entries below come with measured melting point values attached.
endpoint.name: melting point

compound	endpoint.name	observed.value
Cc1ccccc1NC(=O)Nc1ccc(CC(=O)N2CCN(CCC(=O)O)C(=O)C2Cc2ccccc2)cc1 (centres unmarked) [Example 4]	melting point	103 to 105 °C
Cc1ccccc1NC(=O)Nc1ccc(CC(=O)NC2(c3cc(CCC(=O)O)on3)CCCC2)cc1 [Example 9]	melting point	195 to 197 °C
Cc1cccc(C)c1NC(=O)Nc1ccc(CC(=O)NC(CC(C)C)c2ncc(CCC(=O)O)s2)cc1 (centres unmarked) [Example 20]	melting point	125 to 127 °C
Cc1ccccc1NC(=O)Nc1ccc(CC(=O)NC(CC(C)C)c2ncc(CCC(=O)O)o2)cc1 (centres unmarked) [Example 8]	melting point	168 to 170 °C
CC(C)CC(NC(=O)Cc1ccc(NC(=O)Nc2ccccc2Cl)cc1)c1cc(CCC(=O)O)on1 (centres unmarked) [Example 24]	melting point	143 to 145 °C
CCOC(=O)CC(=O)c1cc(C(CC(C)C)NC(=O)Cc2ccc(NC(=O)Nc3ccccc3Cl)cc2)no1 (centres unmarked) [Example 26]	melting point	150 to 152 °C
Cc1ccccc1NC(=O)Nc1ccc(CC(=O)NC(CC(C)C)C2=NOC(CCC(=O)O)(CCC(=O)O)C2)cc1 (centres unmarked) [Example 6]	melting point	173 to 175 °C
CC(C)CC(NC(=O)Cc1ccc(NC(=O)Nc2ccccc2Cl)cc1)c1ncc(CCC(=O)O)s1 (centres unmarked) [Example 15]	melting point	173 to 175 °C

====

The entries below come with measured melting point values attached.

molecule	melting point
CC(C)CC(NC(=O)Cc1ccc(NC(=O)Nc2ccccn2)cc1)c1cc(CCC(=O)O)on1 (stereo not shown) [Example 10]	159 to 161 °C
CC(C)CC(NC(=O)Cc1ccc(NC(=O)Nc2ccccc2F)cc1)c1ncc(CCC(=O)O)s1 (stereo not shown) [Example 17]	83 to 85 °C
Cc1ccccc1NC(=O)Nc1ccc(CC(=O)NC(CC(C)C)c2cc(/C=C/C(=O)O)on2)cc1 (stereo not shown) [Example 18]	136 to 138 °C
Cc1cccc(Cl)c1NC(=O)Nc1ccc(CC(=O)NC(CC(C)C)c2ncc(CCC(=O)O)s2)cc1 (stereo not shown) [Example 21]	160 to 162 °C
